- STUDY SYSTEM: PDE10A (Homo sapiens, UniProt Q9Y233)
- Construct: made in house; host or cells: SF21 insect cells (baculovirus)
- Sequence (Q9Y233 1-779 isoform Q9Y233-1): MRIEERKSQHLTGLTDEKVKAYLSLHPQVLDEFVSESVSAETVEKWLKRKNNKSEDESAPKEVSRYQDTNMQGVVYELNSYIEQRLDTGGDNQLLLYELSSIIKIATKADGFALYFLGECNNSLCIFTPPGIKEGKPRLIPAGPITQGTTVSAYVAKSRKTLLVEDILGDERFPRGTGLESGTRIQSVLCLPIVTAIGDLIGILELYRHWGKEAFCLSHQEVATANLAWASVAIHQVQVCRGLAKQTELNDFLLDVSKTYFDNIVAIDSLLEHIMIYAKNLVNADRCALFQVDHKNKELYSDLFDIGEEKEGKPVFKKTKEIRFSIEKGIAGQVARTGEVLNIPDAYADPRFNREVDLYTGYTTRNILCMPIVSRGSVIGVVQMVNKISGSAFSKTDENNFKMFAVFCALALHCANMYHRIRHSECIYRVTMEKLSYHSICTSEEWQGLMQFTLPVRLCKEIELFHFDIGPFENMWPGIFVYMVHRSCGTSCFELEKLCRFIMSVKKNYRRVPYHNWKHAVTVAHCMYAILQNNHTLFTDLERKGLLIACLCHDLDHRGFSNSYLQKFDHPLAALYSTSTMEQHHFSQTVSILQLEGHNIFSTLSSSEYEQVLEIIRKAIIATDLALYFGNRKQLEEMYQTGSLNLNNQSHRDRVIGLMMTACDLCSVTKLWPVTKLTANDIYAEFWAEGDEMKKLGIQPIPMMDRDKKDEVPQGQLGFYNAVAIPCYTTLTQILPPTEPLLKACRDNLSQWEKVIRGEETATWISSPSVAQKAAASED
- ASSAY SUMMARY: Inhibition of recombinant PDE10A (baculovirus/SF21 system), [3H]-cAMP SPA
- Format: biochemical
- ASSAY CONDITIONS: recombinant PDE10A1, cytosolic; 0.1 μM [3H]-cAMP, 37° C., 30 minutes; read-out: PDE10A IC50
- Method: Inhibition of Recombinant PDE10A (Baculovirus/SF21 System) The gene was than inserted into a baculovirus vector, ligated with the baculovirus DNA. The enzyme-protein was expressed in SF21-cells. […] PDE activity was determined in a one step procedure in microtiter plates. […] Non-specific enzyme activity was determined without the enzyme. […] One hour later the mixture was measured in a liquid scintillation counter for microtiter plates (Microbeta Trilux). […]
Reported values of IC50 for individual entries

MOLECULE: COc1cc(F)cc2c1nnc1c(C)nc(-c3c(C)noc3C)n12 [Example 115]
CENSORING OPERATOR: =
IC50 / nM: 67

MOLECULE: Cc1nc(-c2ccccc2Cl)n2c1nnc1ccc(N3CCCCC3)cc12 [Example 183]
CENSORING OPERATOR: =
IC50 / nM: 12.1

MOLECULE: COc1ccc(Cl)c(-c2nc(C)c3nnc4c(OC)cc(F)cc4n23)c1 [Example 126]
CENSORING OPERATOR: =
IC50 / nM: 2.45

MOLECULE: CCOc1ccc(F)c(-c2nc(C)c3nnc4ccc(F)cc4n23)c1 [Example 24]
CENSORING OPERATOR: >
IC50 / nM: 500

MOLECULE: COc1cc(F)cc2c1nnc1c(C)nc(-c3sc(C)nc3C)n12 [Example 127]
CENSORING OPERATOR: =
IC50 / nM: 11.7

MOLECULE: CCCCOc1ccc(F)c(-c2ccc3nnc4c(C)nc(-c5cc(OCCCC)ccc5F)n4c3c2)c1 [Example 175]
CENSORING OPERATOR: =
IC50 / nM: 21.6

MOLECULE: COc1cc(F)cc2c1nnc1c(C)nc(-c3cccnc3)n12 [Example 109]
CENSORING OPERATOR: =
IC50 / nM: 102

MOLECULE: COc1cc(N2CCOCC2)cc2c1nnc1c(C)nc(-c3ccccc3C)n12 [Example 66]
CENSORING OPERATOR: =
IC50 / nM: 1.53

MOLECULE: Cc1nc(-c2cc(C(F)(F)F)ccc2F)n2c1nnc1ccc(F)cc12 [Example 21]
CENSORING OPERATOR: >
IC50 / nM: 1000

MOLECULE: COc1cc(F)cc2c1nnc1c(C)nc(-c3cc(Cl)ccc3F)n12 [Example 106]
CENSORING OPERATOR: =
IC50 / nM: 7.91

MOLECULE: CCCc1nc(C)c2nnc3ccc(F)cc3n12 [Example 1]
CENSORING OPERATOR: =
IC50 / nM: 626

MOLECULE: COc1cc(F)c2nnc3c(C)nc(-c4ccc(F)cc4C)n3c2c1 [Example 69]
CENSORING OPERATOR: =
IC50 / nM: 34.7

MOLECULE: COc1cc(C(F)(F)F)cc2c1nnc1c(C)nc(-c3ccncc3C)n12 [Example 134]
CENSORING OPERATOR: =
IC50 / nM: 1.48

MOLECULE: Cc1nc(-c2cccc(Cl)c2Cl)n2c1nnc1ccc(F)cc12 [Example 14]
CENSORING OPERATOR: =
IC50 / nM: 308

MOLECULE: COc1cc(F)c2nnc3c(C)nc(-c4cccc(F)c4C)n3c2c1 [Example 84]
CENSORING OPERATOR: =
IC50 / nM: 10.7

MOLECULE: Cc1ccccc1-c1nc(C)c2nnc3ccc(F)cc3n12 [Example 17]
CENSORING OPERATOR: =
IC50 / nM: 196

MOLECULE: Cc1cc(F)ccc1-c1nc(C)c2nnc3cc(F)ccc3n12 [Example 27]
CENSORING OPERATOR: =
IC50 / nM: 911

MOLECULE: COc1cc(F)c2nnc3c(C)nc(-c4ccc(C)cc4Cl)n3c2c1 [Example 71]
CENSORING OPERATOR: =
IC50 / nM: 11.4

MOLECULE: COc1cc(F)c2nnc3c(C)nc(-c4sc(C)nc4C)n3c2c1 [Example 91]
CENSORING OPERATOR: =
IC50 / nM: 43.6

###

Reported values of IC50 for individual entries
- STUDY SYSTEM: PDE2A (Homo sapiens)
- Construct: made in house; host or cells: SF21 insect cells (baculovirus)
- Sequence (O00408 whole entry): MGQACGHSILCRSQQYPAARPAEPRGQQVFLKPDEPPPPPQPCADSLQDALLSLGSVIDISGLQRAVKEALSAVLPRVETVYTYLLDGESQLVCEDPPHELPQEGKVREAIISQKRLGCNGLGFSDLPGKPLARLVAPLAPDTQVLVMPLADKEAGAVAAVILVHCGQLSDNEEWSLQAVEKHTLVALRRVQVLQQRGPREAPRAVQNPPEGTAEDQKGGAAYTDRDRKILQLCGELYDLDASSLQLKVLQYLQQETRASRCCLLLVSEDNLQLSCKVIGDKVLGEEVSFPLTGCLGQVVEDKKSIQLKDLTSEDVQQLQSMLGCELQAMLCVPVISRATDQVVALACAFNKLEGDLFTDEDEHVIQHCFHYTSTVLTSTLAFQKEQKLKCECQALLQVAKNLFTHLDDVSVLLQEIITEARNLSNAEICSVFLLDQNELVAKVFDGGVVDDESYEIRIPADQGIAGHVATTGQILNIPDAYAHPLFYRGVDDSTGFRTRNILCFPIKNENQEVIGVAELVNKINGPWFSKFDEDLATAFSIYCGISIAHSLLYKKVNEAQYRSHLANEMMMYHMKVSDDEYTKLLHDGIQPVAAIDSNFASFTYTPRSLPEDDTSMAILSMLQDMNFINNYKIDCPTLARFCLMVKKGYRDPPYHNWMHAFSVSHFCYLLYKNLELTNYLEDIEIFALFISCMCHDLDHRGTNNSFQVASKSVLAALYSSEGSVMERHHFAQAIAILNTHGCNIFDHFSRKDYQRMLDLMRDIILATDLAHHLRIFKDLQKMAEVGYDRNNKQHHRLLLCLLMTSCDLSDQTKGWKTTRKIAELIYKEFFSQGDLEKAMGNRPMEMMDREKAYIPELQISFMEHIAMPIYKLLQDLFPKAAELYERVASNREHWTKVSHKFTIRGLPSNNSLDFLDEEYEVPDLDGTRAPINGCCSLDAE
- ASSAY SUMMARY: Inhibition of recombinant PDE2A (expressed in baculovirus/SF21-cells), [3H]-cAMP SPA
- Type: biochemical
QUANTITY NAME: IC50 (nM)

SMILES INPUT: COc1cc(F)cc2c1nnc1c(C)nc(-c3sccc3C)n12
REPORTED MEASUREMENT: 269
//
SMILES INPUT: COc1cc(C(F)(F)F)cc2c1nnc1c(C)nc(-c3ccncc3C)n12
REPORTED MEASUREMENT: 346
//
SMILES INPUT: COc1cc(F)cc2c1nnc1c(C)nc(-c3ccncc3)n12
REPORTED MEASUREMENT: 4950
//
SMILES INPUT: COc1ccc(Cl)cc1-c1nc(C)c2nnc3c(OC)cc(F)cc3n12
REPORTED MEASUREMENT: 704
//
SMILES INPUT: Cc1nc(-c2ccccc2Cl)n2c1nnc1ccc(F)cc12
REPORTED MEASUREMENT: 32.6
//
SMILES INPUT: COc1cc(F)c2nnc3c(C)nc(-c4cnc(F)c(C)c4)n3c2c1
REPORTED MEASUREMENT: 469
//
SMILES INPUT: COc1cncc(-c2nc(C)c3nnc4c(F)cc(OC)cc4n23)c1
REPORTED MEASUREMENT: 39.4
//
SMILES INPUT: COc1cc(F)c2nnc3c(C)nc(-c4ccc(F)nc4C)n3c2c1
REPORTED MEASUREMENT: 312
//
SMILES INPUT: Cc1cn(-c2ccc3nnc4c(C)nc(CC(C)C)n4c3c2)c(CC(C)C)n1
REPORTED MEASUREMENT: 134
//
SMILES INPUT: COc1ccc(Cl)c(-c2nc(C)c3nnc4c(OC)cc(F)cc4n23)c1
REPORTED MEASUREMENT: 108
//
SMILES INPUT: Cc1nc(-c2cc(Cl)ccc2Cl)n2c1nnc1c(Cl)cc(C(F)(F)F)cc12
REPORTED MEASUREMENT: 403
//
SMILES INPUT: COc1cc(F)cc2c1nnc1c(C)nc(-c3c(C)nn(C)c3C)n12
REPORTED MEASUREMENT: 1500
//
SMILES INPUT: COc1cc(O)cc2c1nnc1c(C)nc(-c3ccncc3C)n12
REPORTED MEASUREMENT: 105
//
SMILES INPUT: Cc1nc(-c2cc(OC(C)C)ccc2F)n2c1nnc1ccc(F)cc12
REPORTED MEASUREMENT: 473
//
SMILES INPUT: COc1cc(OC)c2nnc3c(C)nc(-c4cnccc4C)n3c2c1
REPORTED MEASUREMENT: 775
//
SMILES INPUT: COc1cc(F)c2nnc3c(C)nc(-c4cccnc4)n3c2c1
REPORTED MEASUREMENT: 585
//
SMILES INPUT: COc1cc(F)cc2c1nnc1c(C)nc(-c3ccc(F)cc3Cl)n12
REPORTED MEASUREMENT: 324
//
SMILES INPUT: Cc1nc(-c2ccccc2Cl)n2c1nnc1ccc(-c3ccccc3Cl)cc12
REPORTED MEASUREMENT: 1.28

###

- STUDY SYSTEM: PDE10A (Homo sapiens, UniProt Q9Y233)
- Construct: made in house; host or cells: SF21 insect cells (baculovirus)
- ASSAY SUMMARY: Inhibition of recombinant PDE10A (baculovirus/SF21 system), [3H]-cAMP SPA
- Type: biochemical
- ASSAY CONDITIONS: recombinant PDE10A1, cytosolic; 0.1 μM [3H]-cAMP, 37° C., 30 minutes; read-out: PDE10A IC50

COMPOUND: CCCOc1ccc(F)c(-c2ccc3nnc4c(C)nc(-c5cc(OCCC)ccc5F)n4c3c2)c1 [Example 174]
IC50: 41.1 nM
--
COMPOUND: COc1cc(F)cc2c1nnc1c(C)nc(-c3ccc(C)cc3F)n12 [Example 114]
IC50: 17.1 nM
--
COMPOUND: COc1cc(F)c2nnc3c(C)nc(-c4c(C)n[nH]c4C)n3c2c1 [Example 96]
IC50: 53.1 nM
--
COMPOUND: COc1cc(O)cc2c1nnc1c(C)nc(-c3ccncc3C)n12 [Example 152]
IC50: 3.05 nM
--
COMPOUND: COc1cc(F)c2nnc3c(C)nc(-c4cnccc4C)n3c2c1 [Example 97]
IC50: 146 nM
--
COMPOUND: COc1cc(O)cc2c1nnc1c(C)nc(-c3cnccc3C)n12 [Example 149]
IC50: 22 nM
--
COMPOUND: Cc1cn(-c2ccc3nnc4c(C)nc(C5CCCCC5)n4c3c2)c(C2CCCCC2)n1 [Example 179]
IC50: 322 nM
--
COMPOUND: COc1cc(F)c2nnc3c(C)nc(-c4cc(F)ccc4C)n3c2c1 [Example 73]
IC50: 18.9 nM
--
COMPOUND: COc1cc(F)cc2c1nnc1c(C)nc(-c3ccc(F)cc3C)n12 [Example 110]
IC50: 8.52 nM
--
COMPOUND: Cc1nc(C2CCCCC2)n2c1nnc1ccc(F)cc12 [Example 4]
IC50: 228 nM
--
COMPOUND: COc1ccc2nnc3c(C)nc(-c4cc(OC(C)C)ccc4F)n3c2c1 [Example 44]
IC50: 1550 nM
--
COMPOUND: Cc1ncccc1-c1nc(C)c2nnc3cc(F)ccc3n12 [Example 25]
IC50: 1490 nM
--
COMPOUND: COc1cc(F)cc2c1nnc1c(C)nc(-c3cc(F)ccc3Cl)n12 [Example 118]
IC50: 2.02 nM
--
COMPOUND: COc1cc(OC)c2nnc3c(C)nc(-c4cccnc4C)n3c2c1 [Example 48]
IC50: 1.48 nM
--
COMPOUND: Cc1nc(-c2cnccc2Cl)n2c1nnc1ccc(F)cc12 [Example 19]
IC50: 2030 nM
--
COMPOUND: Cc1nc(-c2cc(C(F)(F)F)ccc2F)n2c1nnc1cc(F)ccc12 [Example 30]
IC50: > 1000 nM
--
COMPOUND: COc1cc(F)c2nnc3c(C)nc(-c4ccc(C)cc4F)n3c2c1 [Example 74]
IC50: 38.5 nM
--
COMPOUND: COc1cc2nnc3c(C)nc(-c4ccccn4)n3c2cc1OC [Example 50]
IC50: 71.2 nM
--
COMPOUND: COc1cc(F)cc2c1nnc1c(C)nc(-c3cc(Cl)ccc3C)n12 [Example 104]
IC50: 5.37 nM
--
COMPOUND: COc1cc(F)c2nnc3c(C)nc(-c4c(C)noc4C)n3c2c1 [Example 89]
IC50: 623 nM
--
COMPOUND: Cc1nc(-c2ccccc2Cl)n2c1nnc1ccc(N3CCN(C)CC3)cc12 [Example 186]
IC50: 9.02 nM
--
COMPOUND: COc1ccc2c(c1)nnc1c(C)nc(-c3ccccc3Cl)n12 [Example 34]
IC50: 75.2 nM
--
COMPOUND: COc1cc(OC(F)F)cc2c1nnc1c(C)nc(-c3cnccc3C)n12 [Example 150]
IC50: 7 nM
--
COMPOUND: COc1cccc2c1nnc1c(C)nc(-c3ccccc3C)n12 [Example 60]
IC50: 3.31 nM
--
COMPOUND: COc1cc(F)cc2c1nnc1c(C)nc(-c3ccc(C)cc3Cl)n12 [Example 112]
IC50: 1.88 nM
--
COMPOUND: COc1ccccc1-c1nc(C)c2nnc3ccc(F)cc3n12 [Example 16]
IC50: 456 nM
--
COMPOUND: Cc1nc(-c2cccc(Cl)c2Cl)n2c1nnc1ccc(-c3cccc(Cl)c3Cl)cc12 [Example 173]
IC50: 57.6 nM
--
COMPOUND: COc1cc(F)cc2c1nnc1c(C)nc(-c3cnccc3C)n12 [Example 123]
IC50: 25.4 nM
--
COMPOUND: COc1ccccc1-c1nc(C)c2nnc3ccc(Cl)cc3n12 [Example 39]
IC50: 115 nM
--
COMPOUND: COc1cc(F)cc2c1nnc1c(C)nc(-c3sccc3C)n12 [Example 119]
IC50: 1.64 nM
--
COMPOUND: COc1cccc(-c2nc(C)c3nnc4c(OC)cc(F)cc4n23)c1 [Example 99]
IC50: 9.11 nM
--
COMPOUND: Cc1nc(-c2ccccc2Cl)n2c1nnc1ccc(F)cc12 [Example 13]
IC50: 86 nM
--
COMPOUND: Cc1nc(-c2cc(OC(C)C)ccc2F)n2c1nnc1cc(F)ccc12 [Example 31]
IC50: 5340 nM
--
COMPOUND: COc1cc(F)c2nnc3c(C)nc(-c4cc(Cl)ccc4F)n3c2c1 [Example 88]
IC50: 7.99 nM
--
COMPOUND: COc1cc(OCc2ccccc2)cc2c1nnc1c(C)nc(-c3cccnc3C)n12 [Example 154]
IC50: 0.67 nM
--
COMPOUND: COc1cc(F)c2nnc3c(C)nc(-c4cccnc4F)n3c2c1 [Example 94]
IC50: 122 nM
--
COMPOUND: CCCCOc1ccc(F)c(-c2nc(C)c3nnc4ccc(F)cc4n23)c1 [Example 22]
IC50: > 500 nM
--
COMPOUND: COc1ccc2c(c1)nnc1c(C)nc(-c3cc(Cl)ccc3Cl)n12 [Example 7]
IC50: 258 nM
